Quick reference for Percent Effect among some molecules
- TESTED SYSTEM: Aspartate--tRNA(Asp/Asn) ligase (Mycobacterium tuberculosis (strain ATCC 25618 / H37Rv)) (UniProt P9WFW3); also: in the data most compounds retested in dose-response had high values
- Sequence (P9WFW3 whole entry): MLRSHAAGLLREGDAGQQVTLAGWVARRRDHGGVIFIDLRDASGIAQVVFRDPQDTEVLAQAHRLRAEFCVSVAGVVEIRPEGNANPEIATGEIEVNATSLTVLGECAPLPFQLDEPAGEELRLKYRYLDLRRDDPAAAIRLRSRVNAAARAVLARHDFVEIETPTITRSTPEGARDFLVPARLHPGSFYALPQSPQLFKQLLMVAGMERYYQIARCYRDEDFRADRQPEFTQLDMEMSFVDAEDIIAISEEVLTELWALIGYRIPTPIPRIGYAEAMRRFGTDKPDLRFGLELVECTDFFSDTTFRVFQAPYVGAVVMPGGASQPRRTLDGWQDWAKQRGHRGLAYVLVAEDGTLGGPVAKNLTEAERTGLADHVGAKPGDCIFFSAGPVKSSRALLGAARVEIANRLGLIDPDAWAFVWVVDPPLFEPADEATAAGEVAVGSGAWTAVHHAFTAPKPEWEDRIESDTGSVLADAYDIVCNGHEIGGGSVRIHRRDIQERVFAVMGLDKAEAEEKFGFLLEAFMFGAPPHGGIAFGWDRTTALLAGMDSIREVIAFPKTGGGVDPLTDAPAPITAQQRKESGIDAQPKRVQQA
- TEST: Assay for Asp RNA synthetase-1 from Mycobacterium tuberculosis
- Type: functional
- Parameters: scale not given: direction of the effect not stated beside the values
- MEASUREMENT SETUP: 30 µM

# annotated cases, reported Percent Effect shown
CCc1nc(CNCC2CCCN2c2cc(NC)ncn2)cs1 (stereo unspecified)    -0.456%
O=C(NCC1CCN(Cc2ccsc2)CC1)NC1CC1    4.04%
Cn1cc(CN2CCc3nc(-c4ccccn4)nc(O)c3C2)cn1    -5.28%
CN1CC(=O)N(c2cccnc2)CC12CCN(C(=O)C1CCCCC1)C2 (stereo unspecified)    6.7%
CN(c1ccncn1)C1CC2(CCN(C(=O)c3cccs3)C2)C1 (stereo unspecified)    -6.21%
Cc1nc(CN2CCC(CNC(=O)Nc3ccccn3)CC2)oc1C    5.15%
CN1CCC(c2ncc3c(n2)CCN(C(=O)CC2C=CCC2)C3)CC1 (stereo unspecified)    0.956%
CC(C)(C)OC(=O)N1CCCc2ccc(NCc3ncc[nH]3)cc21    5.68%
O=C(NCCN1CCC(c2cccs2)CC1)c1ccccc1C(F)(F)F    -10.3%
CCc1nc(CN2CCN(C(=O)c3cnccn3)CC2)cs1    -2.04%

// query Quick one: Percent Effect for Cc1cccc(CN2CCc3nnc(CO)n3CC2)n1 ?
// result 0.728%

// query Quick one: Percent Effect for Cc1ccc(CNC(=O)N2CCN(Cc3ccsc3)CC2)n1C ?
// result 0.896%

// query Quick one: Percent Effect for Cc1nc2cc(C(=O)N3CCCC(n4cncn4)C3)ccc2n1C (stereo unspecified) ?
// result -8.92%

// query Quick one: Percent Effect for CN(C)CCCNC(=O)CNC(=O)N1CCc2c([nH]c3ccccc23)C1 ?
// result 4.82%

// query Quick one: Percent Effect for O=C(NCC1CC1)C1=NOC2(CCN(S(=O)(=O)c3cccs3)C2)C1 (stereo unspecified) ?
// result 2.15%

// query Quick one: Percent Effect for COCCn1nc(C(=O)N(C)Cc2cnn(C)c2)ccc1=O ?
// result -3.74%

// query Quick one: Percent Effect for Cc1cccc(-c2ccc3nc(C4CCN(CC5CC5)CC4)nn3c2)c1 ?
// result -1.89%

// query Quick one: Percent Effect for CN1CCC/C1=N\S(=O)(=O)c1ccc(NC(=O)c2cccs2)cc1 ?
// result -0.972%

---

- TESTED SYSTEM: Shiga toxin 2 (Escherichia coli O157:H7) (UniProt P09385+P09386)
- TEST: E. coli 0.157:H7 Shiga Toxin SOP - stx2 screening assay
- Format: functional
- Design: scale not given: direction of the effect not stated beside the values
- MEASUREMENT SETUP: 30 µM
Quick reference for Percent Effect among some compounds
Give just the numeric value; % need not be written.

# annotated cases, reported Percent Effect shown
COCC(=O)NC(C)Cc1cccc(OC)c1 (centres undefined)    24.3
CN1CCC2(CC1)C(=O)N(CC1CC1)c1ccccc12    4.66
CCO[C@@H]1CCN(C(=O)c2cscn2)[C@@H]1Cc1cnn(C)c1    1.75
CN(CC(=O)N1CCC(Oc2ccccc2)CC1)c1cnccn1    -7.36
O=C(c1cc(-n2cccc2)ccc1Cl)N1CCC2(CC1)OCCO2    8.93
Cc1nonc1CC(=O)N1C[C@@H]2CC[C@H](C1)N(Cc1ccccc1)C2=O    2.88
O=C1C[C@H]2[C@@H](CCN2C(=O)Cc2cccs2)N1Cc1cccnc1    -6.22
CCc1nccn1C1CCCN(C(=O)c2cc3nc(C)ccc3o2)C1 (centres undefined)    20.3

// query Quick one: Percent Effect for CN(CC1CCCCO1)C(=O)c1ccnc(OC2CCC2)c1 (centres undefined) ?
// result -8.22

// query Quick one: Percent Effect for O=C(NCCCNc1ccccc1)c1scnc1Cl ?
// result -10.4

// query Quick one: Percent Effect for Cc1cc(C(F)(F)F)c2c(C3CCN(S(=O)(=O)N(C)C)CC3)noc2n1 ?
// result 0.93

// query Quick one: Percent Effect for COc1cccc2c1OCC(C(=O)N(C)CCCc1cnn(C)c1)C2 (centres undefined) ?
// result -7.98

// query Quick one: Percent Effect for COc1ccc(NC(C)=O)c(N2CCN(C(C)=O)CC2)n1 ?
// result -15.1

// query Quick one: Percent Effect for CC(C)CN(C)c1ccc(C(=O)N2CCCC2c2cnn(C)c2)cn1 (centres undefined) ?
// result 21
